Test system: ASPC1 pancreatic adenocarcinoma cells [homozygous G12D]
Assay: Cancer cell line proliferation (CellTiter-Glo), ASPC1
Format: cell-based
Details: 72 hr treatment, read-out: ASPC-1 CTG (EC50)
readout-name: EC50

{"molecule": "Cc1cccc2cccc(-c3ncc4c(N5CC6CCC(C5)N6)nc(OC[C@@H]5C[C@H](N6CCN(Cc7ccc8c(c7)CN(C(=O)c7cc(C(C)C)c(O)cc7O)C8)CC6)CN5C)nc4c3F)c12 [Compound 68]", "EC50": "> 1000 nM"}
{"molecule": "CC(C)c1cc(-c2nnc(O)n2-c2ccc(CN(C)[C@@H]3CN4CCC[C@]4(COc4nc(N5CC6CCC(C5)N6)c5cnc(-c6cc(O)cc7ccccc67)c(F)c5n4)C3)cc2)c(O)cc1O [Compound 43]", "EC50": "> 1000 nM"}
{"molecule": "C#Cc1cccc2cc(O)cc(-c3ncc4c(N5CC6CCC(C5)N6)nc(OCC5(CN6CCN(CC7CCN(Cc8ccc9c(c8)CN(C(=O)c8cc(C(C)C)c(O)cc8O)C9)CC7)CC6)CC5)nc4c3F)c12 [Compound 125]", "EC50": "100 to 1000 nM"}
{"molecule": "Cc1cccc2cccc(-c3ncc4c(N5CC6CCC(C5)N6)nc(OC[C@@H]5C[C@H](N6CCN(Cc7ccc8c(c7)CN(C(=O)c7cc(C(C)C)c(O)cc7O)C8)CC6)CN5C)nc4c3F)c12 [Example 1]", "EC50": "100 to 1000 nM"}

EC50 in this record for Cc1cccc2cccc(-c3ncc4c(N5CC6CCC(C5)N6)nc(OC[C@@H]5C[C@H](N6CCN(Cc7ccc8c(c7)CN(C(=O)c7cc(C(C)C)c(O)cc7O)C8)CC6)CN5C)nc4c3F)c12 [Compound 37] : 100 to 1000 nM

###

Test system: AGS gastric carcinoma cells [heterozygous G12D]
Assay: Cancer cell line proliferation (CellTiter-Glo), AGS
Type: cell-based
Conditions: Homo sapiens, 72 hr treatment, read-out: AGS CTG (EC50)
readout-name: EC50

{"molecule": "CC(C)c1cc(C(=O)N2Cc3ccc(CN4CCC(C(=O)N(C)[C@H]5CN6CCC[C@]6(COc6nc(N7CC8CCC(C7)N8)c7cnc(-c8cc(O)cc9ccccc89)c(F)c7n6)C5)CC4)cc3C2)c(O)cc1O", "EC50": "100 to 1000 nM"}
{"molecule": "CC(C)c1cc(-c2nnc(C(=O)NC(C)C(F)(F)F)n2-c2ccc(CN3CCC(CN4CCN(CC5(COc6nc(N7CC8CCC(C7)N8)c7cnc(-c8cccc9ccccc89)c(F)c7n6)CC5)CC4)CC3)cc2)c(O)cc1O (centres unmarked)", "EC50": "100 to 1000 nM"}
{"molecule": "C#Cc1cccc2cc(O)cc(-c3ncc4c(N5CC6CCC(C5)N6)nc(OCC5(CN6CCN(Cc7ccc(-n8c(C(=O)NCC(F)(F)F)nnc8-c8cc(C(C)C)c(O)cc8O)cc7)CC6)CC5)nc4c3F)c12", "EC50": "< 100 nM"}
{"molecule": "CCNC(=O)c1nnc(-c2cc(C(C)C)c(O)cc2O)n1-c1ccc(CN2CCC(C(=O)N3CCN([C@H]4C[C@@H](COc5nc(N6CC7CCC(C6)N7)c6cnc(-c7cccc(C)c7C)c(F)c6n5)N(C)C4)CC3)CC2)cc1", "EC50": "< 100 nM"}

Okay, now this molecule:
EC50 of C#Cc1c(F)ccc2cc(O)cc(-c3ncc4c(N5CC6CCC(C5)N6)nc(OCC5(CN6CC(C7CCN(Cc8ccc9c(c8)CN(C(=O)c8cc(C(C)C)c(O)cc8O)C9)CC7)C6)CC5)nc4c3F)c12 , assay on AGS gastric carcinoma cells [heterozygous G12D], is < 100 nM

###

Tested on: AGS gastric carcinoma cells [heterozygous G12D]
Test: Cancer cell line proliferation (CellTiter-Glo), AGS
Format: cell-based
Settings: Homo sapiens, 72 hr treatment, read-out: AGS CTG (EC50)
Catalogue of EC50 values

{"compound": "Cc1c(F)cccc1-c1ncc2c(N3CC4CCC(C3)N4)nc(OC[C@@H]3C[C@H](N4CCN(C(=O)C5CCN(Cc6ccc7c(c6)CN(C(=O)c6cc(C(C)C)c(O)cc6O)C7)CC5)CC4)CN3C)nc2c1F [Compound 84]", "recorded-result": "100 to 1000 nM"}
{"compound": "C#Cc1cccc2cc(O)cc(-c3ncc4c(N5CC6CCC(C5)N6)nc(OC[C@@H]5C[C@H](N6CCN(Cc7ccc(-n8c(C(=O)NCC(F)(F)F)nnc8-c8cc(CC)c(O)cc8O)cc7)CC6)CN5C)nc4c3F)c12 [Compound 99]", "recorded-result": "100 to 1000 nM"}
{"compound": "CCNC(=O)c1nnc(-c2cc(C(C)C)c(O)cc2O)n1-c1ccc(CN2CCN([C@H]3C[C@@H](COc4nc(N5CC6CCC(C5)N6)c5cnc(-c6cccc7cccc(C)c67)c(F)c5n4)N(C)C3)CC2)cc1 [Compound 29]", "recorded-result": "< 100 nM"}
{"compound": "C#Cc1cccc2cccc(-c3ncc4c(N5CC6CCC(C5)N6)nc(OCC5(CN6CCN(Cc7ccc8c(c7)CN(C(=O)c7cc(C(C)C)c(O)cc7O)C8)CC6)CC5)nc4c3F)c12 [Compound 11]", "recorded-result": "100 to 1000 nM"}

Okay, now this compound:
EC50 in this record for Cc1cccc2cccc(-c3ncc4c(N5CC6CCC(C5)N6)nc(OC[C@@H]5C[C@H](N6CCC(C(=O)N7CCN(Cc8ccc(-n9c(O)nnc9-c9cc(C(C)C)c(O)cc9O)cc8)CC7)CC6)CN5C)nc4c3F)c12 [Compound 23] : 100 to 1000 nM

###

Catalogue of pIC50 values
Target: KRAS(G12D)/SOS1 (Homo sapiens, UniProt P01116, G12D)
Sequence (P01116 1-188 isoform P01116-2 G12D): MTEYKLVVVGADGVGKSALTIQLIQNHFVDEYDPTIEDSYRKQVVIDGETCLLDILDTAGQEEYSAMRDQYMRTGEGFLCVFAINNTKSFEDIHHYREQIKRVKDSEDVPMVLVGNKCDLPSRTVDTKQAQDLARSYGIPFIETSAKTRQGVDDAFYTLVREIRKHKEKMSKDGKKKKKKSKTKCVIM
Test: KRAS(G12D)/SOS1 homogeneous time-resolved fluorescence (HTRF) assay
Conditions: absence of GTP; 4° C., 3 hr
pIC50: −log10 of the molar value.

pIC50 in this record for C#Cc1cccc2cccc(-c3ncc4c(N5CC6CCC(C5)N6)nc(OCC5(CN6CCN(Cc7ccc(-n8c(O)nnc8-c8cc(C(C)C)c(O)cc8O)cc7)CC6)CC5)nc4c3F)c12 : > 7.00

pIC50 in this record for C#Cc1cccc2cccc(-c3ncc4c(N5CC6CCC(C5)N6)nc(OCCN5CCN(C(=O)C6CCN(Cc7ccc(-n8c(C(=O)NCC)nnc8-c8cc(C(C)C)c(O)cc8O)cc7)CC6)CC5)nc4c3F)c12 : 6.00 to 7.00

pIC50 in this record for CCNC(=O)c1nnc(-c2cc(C(C)C)c(O)cc2O)n1-c1ccc(CN2CCC(C(=O)N3CCN([C@H]4C[C@@H](COc5nc(N6CC7CCC(C6)N7)c6cnc(-c7cccc(C)c7C)c(F)c6n5)N(C)C4)CC3)CC2)cc1 : < 6.00

pIC50 in this record for CC(C)c1cc(C(=O)N2Cc3ccc(CN4CCN([C@H]5C[C@@H](COc6nc(N7CC8CCC(C7)N8)c7cnc(-c8ccccc8C(F)(F)F)c(F)c7n6)N(C)C5)CC4)cc3C2)c(O)cc1O : < 6.00

pIC50 in this record for CCNC(=O)c1nnc(-c2cc(C(C)C)c(O)cc2O)n1-c1ccc(CN2CCN(C[C@H]3C[C@@H](COc4nc(N5CC6CCC(C5)N6)c5cnc(-c6cc(O)cc7ccccc67)c(F)c5n4)N(C)C3)CC2)cc1 : > 7.00

###

Test system: AGS gastric carcinoma cells [heterozygous G12D]
Experiment: Cancer cell line proliferation (CellTiter-Glo), AGS
Assay type: cell-based
Details: Homo sapiens, 72 hr treatment, read-out: AGS CTG (EC50)
pEC50: −log10 of the molar value.
Catalogue of pEC50 values

Consider the following illustrative entries.
{"compound": "C#Cc1cccc2cccc(-c3ncc4c(N5CC6CCC(C5)N6)nc(OC[C@@H]5C[C@H](N6CCN(CCN(CC)C(=O)c7cc(C(C)C)c(O)cc7O)CC6)CN5C)nc4c3F)c12 [Compound 80]", "system-under-test": "AGS gastric carcinoma cells [heterozygous G12D]", "pEC50": "< 6.00"}
{"compound": "C#Cc1cccc2cc(O)cc(-c3ncc4c(N5CC6CCC(C5)N6C(C)=O)nc(OCC5(CN6CCN(CC7CCN(Cc8ccc(-n9c(C(=O)NC(C)C(F)(F)F)nnc9-c9cc(C(C)C)c(O)cc9O)cc8)CC7)CC6)CC5)nc4c3F)c12 (stereo not shown) [Compound 150]", "system-under-test": "AGS gastric carcinoma cells [heterozygous G12D]", "pEC50": "> 7.00"}
{"compound": "CC(C)c1cc(-c2nnc(C(=O)NC(C)C(F)(F)F)n2-c2ccc(CN3CCN([C@H]4C[C@@H](COc5nc(N6CC7CCC(C6)N7)c6cnc(-c7cc(O)cc8ccccc78)c(F)c6n5)N(C)C4)CC3)cc2)c(O)cc1O (stereo partly shown) [Compound 100]", "system-under-test": "AGS gastric carcinoma cells [heterozygous G12D]", "pEC50": "> 7.00"}

Okay, now this compound:
pEC50 in this record for C#Cc1c(F)ccc2cc(O)cc(-c3ncc4c(N5CC6CCC(C5)N6)nc(OCC5(CN6CCN(C7CCN(Cc8ccc(-n9c(C(=O)NC(C)C(F)(F)F)nnc9-c9cc(C(C)C)c(OC)cc9OC)cc8)CC7)CC6)CC5)nc4c3F)c12 (stereo not shown) [Compound 200] : 6.00 to 7.00
